Values compiled from ChEMBL document CHEMBL1961873.

- Assay system: MAP/microtubule affinity-regulating kinase 3 (Homo sapiens) (UniProt P27448);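 note: reported values are averaged percent inhibition of MARK3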
- Sequence (P27448 whole entry, looked up): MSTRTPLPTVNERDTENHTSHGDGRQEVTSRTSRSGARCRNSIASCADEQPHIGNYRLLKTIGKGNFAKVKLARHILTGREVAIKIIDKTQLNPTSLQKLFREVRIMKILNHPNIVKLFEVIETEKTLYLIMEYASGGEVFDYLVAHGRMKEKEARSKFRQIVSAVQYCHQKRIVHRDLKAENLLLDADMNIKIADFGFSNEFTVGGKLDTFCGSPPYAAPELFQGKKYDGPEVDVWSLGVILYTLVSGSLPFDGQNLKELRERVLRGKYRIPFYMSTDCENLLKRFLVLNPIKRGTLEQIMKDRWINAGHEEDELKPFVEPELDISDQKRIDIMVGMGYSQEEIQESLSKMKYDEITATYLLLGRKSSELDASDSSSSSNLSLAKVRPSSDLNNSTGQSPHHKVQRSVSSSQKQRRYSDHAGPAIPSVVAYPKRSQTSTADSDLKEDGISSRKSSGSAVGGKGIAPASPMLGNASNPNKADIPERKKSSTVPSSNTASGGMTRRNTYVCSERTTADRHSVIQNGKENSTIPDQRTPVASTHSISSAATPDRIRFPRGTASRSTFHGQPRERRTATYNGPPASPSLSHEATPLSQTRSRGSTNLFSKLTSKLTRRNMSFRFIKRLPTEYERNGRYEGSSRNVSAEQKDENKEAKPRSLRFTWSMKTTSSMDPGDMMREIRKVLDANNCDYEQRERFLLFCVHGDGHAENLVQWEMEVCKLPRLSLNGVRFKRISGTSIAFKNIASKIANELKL
- Settings: at 1 µM
inhibition for assorted molecules
Property: inhibition (%)

{"Molecule": "Nc1ncnc2occ(-c3ccc(NC(=O)Nc4cccc(C(F)(F)F)c4)cc3)c12", "Quantitative result": 5.23}
{"Molecule": "COc1cc2ncn(-c3cc(OCc4ccccc4C(F)(F)F)c(C(N)=O)s3)c2cc1OC", "Quantitative result": 21.5}
{"Molecule": "CC1=C(C(=O)Nc2ccc3[nH]ncc3c2)C(c2ccc(Cl)c(Cl)c2)CC(=O)N1 (stereo unspecified)", "Quantitative result": 9.26}
{"Molecule": "CS(=O)(=O)CCN(CC#N)Cc1ccc(-c2ccc3ncnc(Nc4ccc(OCc5cccc(F)c5)c(Cl)c4)c3c2)o1", "Quantitative result": -0.24}
{"Molecule": "O=C1NC(=O)C(c2ccc(Cl)cc2)=C1Nc1ccc(Cl)c(C(=O)O)c1", "Quantitative result": 1.91}
{"Molecule": "NCc1ccc(-c2nc(-c3ccc(Cl)c(O)c3)c(-c3ccncc3)[nH]2)cc1", "Quantitative result": 5.09}
{"Molecule": "COC(=O)Nc1nc2cc(Oc3ccc(NC(=O)Nc4cccc(C(=O)O)c4)cc3)ccc2[nH]1", "Quantitative result": 3.98}
{"Molecule": "NC(=O)c1cccc(Nc2nccc(Nc3cccc4[nH]ncc34)n2)c1", "Quantitative result": 11.9}
{"Molecule": "O=C1NC(=O)C(N2CCc3ccccc32)=C1c1ccc(Cl)cc1", "Quantitative result": 2.11}
{"Molecule": "Nc1nc(-c2ccccn2)c(-c2ccc3ncccc3n2)s1", "Quantitative result": 8.13}
{"Molecule": "COc1cc2ncn(-c3cc(O[C@H](C)c4ccccc4Cl)c(C(N)=O)s3)c2cc1OC", "Quantitative result": 37.2}
{"Molecule": "O=C1NC(=O)C(c2ccccc2Cl)=C1Nc1cccc(O)c1", "Quantitative result": 13.6}
{"Molecule": "COc1ccc(-c2ccncc2)cc1C(N)=O", "Quantitative result": 5.66}
{"Molecule": "COc1ccc(COc2ccc(Cc3cnc(N)nc3N)cc2OC)cc1", "Quantitative result": 2.06}
{"Molecule": "CCn1c(-c2nonc2N)nc2cncc(C(=O)N3CC[C@H](N)C3)c21", "Quantitative result": 4.57}
{"Molecule": "CCn1c(-c2nonc2N)nc2c(C#CC(C)(C)O)nc(CN3CCCC3)cc21", "Quantitative result": 15.4}
{"Molecule": "Cc1ccc(NC(=O)c2ccnc(N3CCCC3)c2)cc1-c1ccc(C(=O)NCC2CC2)cc1", "Quantitative result": 0.65}
{"Molecule": "CCN1CCC(CC(=O)Nc2n[nH]c3nc(-c4cccs4)c(Br)cc23)CC1", "Quantitative result": -0.75}
{"Molecule": "O=C(Nc1n[nH]c2nc(-c3ccco3)c(Br)cc12)C1CC1", "Quantitative result": -5.02}
{"Molecule": "COc1cccc(-n2ncc3c(N/N=C/c4cccc(F)c4)ncnc32)c1", "Quantitative result": -1.64}
{"Molecule": "Cc1ccc(C(=O)NC2CCCCC2)cc1-c1ccc(C(=O)NCC2CC2)cc1", "Quantitative result": 2.82}

* * *

inhibition for assorted compounds
- Assay system: Tyrosine-protein kinase ITK/TSK (Homo sapiens) (UniProt Q08881);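 note: mean percent inhibition of ITK from the GSK PKIS screen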
- Sequence (whole entry): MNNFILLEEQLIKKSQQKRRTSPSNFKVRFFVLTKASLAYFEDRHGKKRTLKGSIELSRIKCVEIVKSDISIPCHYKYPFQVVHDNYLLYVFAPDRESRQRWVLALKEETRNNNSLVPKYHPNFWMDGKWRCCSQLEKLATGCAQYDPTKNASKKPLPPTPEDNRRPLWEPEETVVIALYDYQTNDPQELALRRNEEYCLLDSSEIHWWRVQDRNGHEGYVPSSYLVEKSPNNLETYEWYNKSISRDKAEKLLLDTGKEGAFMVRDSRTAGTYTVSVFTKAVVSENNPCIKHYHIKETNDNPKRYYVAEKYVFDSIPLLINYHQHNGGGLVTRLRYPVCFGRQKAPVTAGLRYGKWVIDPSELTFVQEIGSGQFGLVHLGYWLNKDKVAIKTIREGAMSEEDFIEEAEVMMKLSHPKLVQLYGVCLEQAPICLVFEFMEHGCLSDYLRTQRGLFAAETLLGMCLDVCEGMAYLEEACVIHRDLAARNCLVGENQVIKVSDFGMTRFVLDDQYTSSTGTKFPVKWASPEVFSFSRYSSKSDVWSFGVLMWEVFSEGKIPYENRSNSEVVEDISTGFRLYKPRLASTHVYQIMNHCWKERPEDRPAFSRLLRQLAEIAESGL
- Settings: at 0.1 µM
Property: inhibition (%)

{"Compound": "CC1=C(C(=O)Nc2ccc3[nH]ncc3c2)C(c2ccc(Cl)c(Cl)c2)CC(=O)N1 (stereo not given)", "Property": "inhibition", "Quantitative result": 1.18}
{"Compound": "CC1=C(C(=O)Nc2ccc3[nH]ncc3c2)C(c2ccc3ccccc3c2)CC(=O)N1 (stereo not given)", "Property": "inhibition", "Quantitative result": 2.6}
{"Compound": "NC(=O)c1cccc(Nc2nccc(Nc3cccc4[nH]ncc34)n2)c1", "Property": "inhibition", "Quantitative result": -0.33}
{"Compound": "COc1cc2ncn(-c3cc(O[C@H](C)c4ccccc4Cl)c(C(N)=O)s3)c2cc1OC", "Property": "inhibition", "Quantitative result": 2.64}
{"Compound": "COC(=O)Nc1nc2cc(Oc3cccc(NC(=O)Nc4cc(C(F)(F)F)ccc4F)c3)ccc2[nH]1", "Property": "inhibition", "Quantitative result": 0.34}
{"Compound": "CNC(=O)c1cncc(/C=C/c2c(Cl)cccc2Cl)c1", "Property": "inhibition", "Quantitative result": -1.98}
{"Compound": "CCn1c(-c2nonc2N)nc2c(N3CCCC3)nccc21", "Property": "inhibition", "Quantitative result": 0.23}
{"Compound": "Nc1nc(-c2ccc3c(c2)C(=Cc2cc(Br)c(O)c(Br)c2)C(=O)N3)cs1", "Property": "inhibition", "Quantitative result": 0.01}
{"Compound": "COc1cc2ncn(-c3cc(OCc4ccccc4Cl)c(C(N)=O)s3)c2cc1OC", "Property": "inhibition", "Quantitative result": 0.4}
{"Compound": "COc1cc(C=NNc2ncnc3c2cnn3-c2ccccc2)ccc1O", "Property": "inhibition", "Quantitative result": 1.47}

* * *

- Assay system: Tyrosine-protein kinase CSK (Homo sapiens);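 note: value given is the averaged percent inhibition of CSK kinase activity, from the GSK PKIS kinase inhibitor set screening panel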
- Settings: at 0.1 µM
Property: inhibition (%)

{"Molecule": "O=C1NC(=O)C(c2ccccc2Cl)=C1Nc1cccc(O)c1", "Quantitative result": 1.31}
{"Molecule": "CS(=O)(=O)Nc1ccc(N/C=C2\\C(=O)Nc3ccccc32)cc1", "Quantitative result": -9.22}
{"Molecule": "CCn1c(-c2nonc2N)nc2ccncc21", "Quantitative result": -1.68}
{"Molecule": "CS(=O)(=O)CCNCc1ccc(-c2ccc3ncnc(Nc4ccc(OCc5cccc(F)c5)c(C(F)(F)F)c4)c3c2)o1", "Quantitative result": 2.85}
{"Molecule": "O=C1Nc2ccc(C(=O)c3ccco3)cc2C1=Cc1cc(Cl)c(O)c(Cl)c1", "Quantitative result": 6.31}
{"Molecule": "CC(=O)Nc1cccc(C#Cc2cncnc2Nc2ccc(OCc3cccc(F)c3)c(Cl)c2)n1", "Quantitative result": -1.09}
{"Molecule": "CC1=C(C(=O)Nc2ccc3[nH]ncc3c2)C(c2ccc(Cl)c(Cl)c2)CC(=O)N1 (stereo not given)", "Quantitative result": 1.65}
{"Molecule": "COc1ccc(COc2ccc(Cc3cnc(N)nc3N)cc2OC)cc1", "Quantitative result": 0.54}
{"Molecule": "COc1ccc(-c2ccncc2)cc1C(N)=O", "Quantitative result": 2.75}
{"Molecule": "COC(=O)Nc1nc2cc(Oc3ccc(NC(=O)Nc4cccc(C(=O)O)c4)cc3)ccc2[nH]1", "Quantitative result": 2.42}

* * *

- Assay system: Homeodomain-interacting protein kinase 1 (Homo sapiens);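 note: values are mean percent inhibition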
- Settings: at 1 µM

{"Molecule": "CC1=C(C(=O)Nc2ccc3[nH]ncc3c2)C(c2ccc3ccccc3c2)CC(=O)N1 (centres undefined)", "Assay system": "Homeodomain-interacting protein kinase 1 (Homo sapiens)", "inhibition, %": 4.61}
{"Molecule": "CC1=C(C(=O)Nc2ccc3[nH]ncc3c2)C(c2ccc(F)cc2)NC(=O)N1 (centres undefined)", "Assay system": "Homeodomain-interacting protein kinase 1 (Homo sapiens)", "inhibition, %": -0.69}
{"Molecule": "CC(=O)Nc1cccc(C#Cc2cncnc2Nc2ccc(OCc3cccc(F)c3)c(Cl)c2)n1", "Assay system": "Homeodomain-interacting protein kinase 1 (Homo sapiens)", "inhibition, %": 3.28}
{"Molecule": "CCc1cccc(NC(=O)Nc2ccc(Oc3ccc4nc(NC(=O)OC)[nH]c4c3)cc2)c1", "Assay system": "Homeodomain-interacting protein kinase 1 (Homo sapiens)", "inhibition, %": 4.9}
{"Molecule": "COc1cccc(-n2ncc3c(N/N=C/c4cccc(F)c4)ncnc32)c1", "Assay system": "Homeodomain-interacting protein kinase 1 (Homo sapiens)", "inhibition, %": 20.6}
{"Molecule": "CC(C)=Cc1cccc2c1/C(=N/Nc1ccc(S(N)(=O)=O)cc1)C(=O)N2", "Assay system": "Homeodomain-interacting protein kinase 1 (Homo sapiens)", "inhibition, %": 10.8}
{"Molecule": "CCn1c(-c2nonc2N)nc2cncc(C(=O)N3CC[C@H](N)C3)c21", "Assay system": "Homeodomain-interacting protein kinase 1 (Homo sapiens)", "inhibition, %": 8.14}
{"Molecule": "CN1CCC(C(=O)Nc2n[nH]c3nnc(-c4ccccc4)cc23)CC1", "Assay system": "Homeodomain-interacting protein kinase 1 (Homo sapiens)", "inhibition, %": 9.2}
{"Molecule": "Cc1nnc(-c2ccc(C)c(-c3ccc(C(=O)Nc4cccc(C#N)c4)cc3)c2)o1", "Assay system": "Homeodomain-interacting protein kinase 1 (Homo sapiens)", "inhibition, %": -2.46}
